# tgt: mu-opioid receptor (MOR) (Rattus norvegicus)
# Construct: Rat cortices were homogenized using 50 mM Tris, pH 7.4, and centrifuged at 16,500 rpm for 10 min; from tissue; host or cells: rat cortex membranes
# Sequence (P33535 whole entry): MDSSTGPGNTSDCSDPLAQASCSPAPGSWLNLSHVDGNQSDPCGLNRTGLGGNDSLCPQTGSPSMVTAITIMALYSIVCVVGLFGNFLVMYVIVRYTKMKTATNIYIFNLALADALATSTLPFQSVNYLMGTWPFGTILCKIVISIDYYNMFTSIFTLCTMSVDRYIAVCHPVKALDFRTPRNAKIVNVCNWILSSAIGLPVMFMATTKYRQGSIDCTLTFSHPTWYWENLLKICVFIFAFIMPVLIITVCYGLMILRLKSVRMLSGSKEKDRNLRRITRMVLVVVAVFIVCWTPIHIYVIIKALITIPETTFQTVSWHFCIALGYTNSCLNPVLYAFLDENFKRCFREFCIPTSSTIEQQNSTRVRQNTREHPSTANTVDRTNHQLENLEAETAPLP
# assay overview: MOR radioligand competition binding assay ([3H]-DAMGO)
# test context: Mu screening results, mean of Exp 1 and Exp 2; unit inferred; read-out: MEAN (Ki)
outcome measure: pKi
# reply with the number alone; pKi is -log10 of concentration in mol/L

Worked set:
Cc1cc(O)cc(C)c1C[C@H]1CN([C@@H](Cc2ccc(O)cc2)CN2C(=N)NC[C@@H]2C)C(=N)N1 7.37
N=C1NC[C@H](Cc2ccc(O)cc2)N1C[C@H](Cc1ccccc1)N1C[C@H](Cc2ccc(O)cc2)NC1=N 6.40
Cc1cc(O)cc(C)c1C[C@H]1CN([C@@H](Cc2c(C)cc(O)cc2C)CN2C(=N)NC[C@@H]2Cc2ccc(O)cc2)C(=N)N1 6.92
CC(C)C[C@H]1CN([C@@H](Cc2ccccc2)CN2C(=N)NC[C@@H]2Cc2ccc(O)cc2)C(=N)N1 6.70
Cc1cc(O)cc(C)c1C[C@@H](CN1C(=N)NC[C@@H]1Cc1ccc(O)cc1)N1C[C@H](Cc2ccc(O)cc2)NC1=N 6.95

Value of measured pKi for the entry "CC(C)C[C@H]1CN([C@@H](Cc2ccc(O)cc2)CN2C(=N)NC[C@@H]2C)C(=N)N1" : 5.82

Value of measured pKi for the entry "Cc1cc(O)cc(C)c1C[C@H]1CN([C@@H](CC(C)C)CN2C(=N)NC[C@@H]2Cc2ccc(O)cc2)C(=N)N1" : 6.93

Taken from paper PMC9455983.
